# Experiment: soluble fraction after stress (log2 fold change); higher = more stays soluble; pooled small domains, quantitative proteomics
# Condition Notes: stress: pH 4
Threshold check on soluble fraction (log2): at or above -0.7 gives 1, strictly below gives 0.

Below are worked cases with known answers.
{"Sequence Data": "HMVWPETEAIVTEDFIGKKRSEVQQEGVIFEFFGEGDMVIDQLPRGGVTLNESGRVWIYLGEDTF", "Assigned Label": 0}
{"Sequence Data": "HMTVKVPDLRGKTLAEMQRILDDAGLKYEINDSTFSRTAIPGTVREVIPAPGSEVKLGRILFIAINGF", "Assigned Label": 1}
{"Sequence Data": "HMAPEKLVHELVGLSLRAGNLDLLAATLSAHKTVLSKESTAEYVKAGLAIEPNHLPLRVLAEQDLGWS", "Assigned Label": 0}
{"Sequence Data": "HMTTKEEAAYQAIRSAIIDGELKPGQSVTIRDLASRFDLGRTPITDAMKHLALDGWLETTTGVGTRV", "Assigned Label": 1}
{"Sequence Data": "HMLGERIRTLRKEIGMSVTELARRVKTSPSHISEIERGEKMPSLNLLVKIAKELKTSIDYLTGLVG", "Assigned Label": 1}
{"Sequence Data": "HMSDYLGSLSHEEKMIFNHFDEDSSTIENMAKKTELKPELISQIFLNLELRGFLRQTEGGLYEKI", "Assigned Label": 0}
{"Sequence Data": "HMKALDTVLSEIPGLGPVRIKQLLKVFGSVDAIRKASLQDLQQIEGIGPKLAQTIYEYFHQP", "Assigned Label": 1}
{"Sequence Data": "HMGEPVASSREVAKRFGKEHKHVLAAIRQILVAENSATKFFHETAFEYRGQRFPEYLMNRDGFALLAMGF", "Assigned Label": 0}

Hello, I need to know if `HMYTVRDGDTVFGILNRFGVSLDELLSLNPELSNGLKAGMVLKIK` has measured soluble fraction (log2) not below -0.7. Thanks!
0

----------
# Experiment: soluble fraction after stress (log2 fold change); higher = more stays soluble; pooled small domains, quantitative proteomics
# Condition Notes: stress: pH 4
Measure: soluble fraction (log2)
I'd appreciate a reply containing only the number, no unit.

Would you please look over these solved cases?
{"Sequence Data": "HMTKGVWHTVKKGENLYRISLYYEVPQQEIKKANKIETENIVVGQKLFIPNTTKKSPIFALTP", "Measured Number": -0.0478}
{"Sequence Data": "HMKSGLLNLSTRKQEKIKQALLSEFSNVSLLEAKVANIVTLAEISRGSFYTYFEDIYDAYQWLASI", "Measured Number": 0.22}
{"Sequence Data": "HMNPFTHEEINLMSIYNAAGTREGLIAALTEMWGYLDAEETELRELADSALAKLRGITDAEYAALELE", "Measured Number": -2.05}

Please look up its soluble fraction (log2): `HMNMFDMRKTGARISQLRRAAGLTQAELAEKLGISYQAVSSWERGSNMPDIGKLLDLARILNTTVDALLSA`
0.309

Please look up its soluble fraction (log2): `HMPSSFLVKVTADALNIRSGPGVANRITGTIKDKGTYTIVDTKDDWGKLKSGVGWIHLGYTKRLD`
0.0923

Please look up its soluble fraction (log2): `HMDAPKTGSLVVSKAVNYGSWSGFTFRLHGTSDKGNSVDVTATTGSDGKAYFKDIEIGTYTLEEVN`
-1.19

Please look up its soluble fraction (log2): `HMHEAILNQIRNEELMLYIGELSDAQQDVILLKYFHQMTFKEIAESFSIPISTVKTRHTAALKKLSTLWK`
0.0907

Please look up its soluble fraction (log2): `HMYEINEIIRERRLKKGLTQAQVAKYLGVSAPAVNKWEKGTTYPDLVLLPALARLLDTDLTTLLSF`
-1.02

----------
Reported soluble fraction (log2) values follow for various sequences
# Experiment: soluble fraction after stress (log2 fold change); higher = more stays soluble; pooled small domains, quantitative proteomics
# Condition Notes: stress: pH 4

Would you please look over these solved cases?
{"Sequence Data": "HMDKFKDVGARIREARKVQKLSQADLAERLQISTSHMSDIENGKKNIGLDIFMRLTEALQVSADWLL", "soluble fraction (log2)": -0.567}
{"Sequence Data": "HMSTQGRRIEILRHLTQTKKKADVNFVELGRTFGTSDTTIRKDLDWLIKNEYWENHGEWKPTQAGLNMI", "soluble fraction (log2)": -0.00179}
{"Sequence Data": "HMAAAQILRAAVLRVPAEETMRFVTETPELRRYLGASLGPTAAIVRPGQEQNLAAALQSHGILVEFDE", "soluble fraction (log2)": 0.106}

Here is another sequence to look at.
Please look up its soluble fraction (log2): `HMSMDPYTVLGVNKSSTDSQIKNAYKNLAKQHHPDRGGNEAKFKEISTAYEQIKTAEKRQQYDMSQQF`
0.389

----------
# Experiment: soluble fraction after stress (log2 fold change); higher = more stays soluble; pooled small domains, quantitative proteomics
# Condition Notes: stress: pH 4
Measure: soluble fraction (log2)
I'd appreciate a reply containing only the number, no unit.

Please look up its soluble fraction (log2): `HMAVFSKKQIFDTAFALFESKGLEAITARNLGKALSSSPAPIYAHYSSITELKNELISVAKDR`
-0.692

Please look up its soluble fraction (log2): `HMTLDDSFYQKADEIIANHTKEERSLIPIIQDIQAEYRYLPPELLTYVAKEIGITDARAYSVASFYENFS`
-1.21

Please look up its soluble fraction (log2): `HMNADTVIGKAGTVIEKIDNVAATGAVKIDGKVWTARSERDNITIDEGTLVKAMAIEGVKLIVEPVT`
0.0947

Please look up its soluble fraction (log2): `HMQRAEQLPAELAAVFRAETEAWGFFERQPPGYQRVAIHWVASAKQEATRLRRLAKLIEESAAGRR`
-1.43

Please look up its soluble fraction (log2): `HMNENDPRVIKTRRLLLDSFVVLVRKKDFTSISVKDITDSAQVNRATFYAHFQDKYDILEYMVID`
-0.198

----------
# Experiment: soluble fraction after stress (log2 fold change); higher = more stays soluble; pooled small domains, quantitative proteomics
# Condition Notes: stress: pH 4
Measure: soluble fraction (log2)
I'd appreciate a reply containing only the number, no unit.

Would you please look over these solved cases?
{"Sequence Data": "HMAAEPDQQLIKPASDPVLRTMKIEELMKMSEQVKIQMSKAAKNFDYLEAARLRDEHFALENLIKLRS", "soluble fraction (log2)": 0.156}
{"Sequence Data": "HMGTHVVQEGEYLDLIIEKTIPGSPIRKDLLRKAFVKLNPSAFGGRGNPNYIFARKKLKVPSVEDLKAVIF", "soluble fraction (log2)": -0.36}
{"Sequence Data": "HMFPNQLLISRLSNQLSASERFAAVSSIAQLKNIDYDVLHVLVHTMNSDPNSNVRLAALEALSR", "soluble fraction (log2)": -0.313}

Here is another sequence to look at.
Please look up its soluble fraction (log2): `HMNSNTIIFSQFLSEVDNGRVTQVQIQGNNIKGTLSNGKDFITYAPNDPNLIEKLTSKGVSISASPID`
0.217

----------
Reported soluble fraction (log2) values follow for various sequences
# Experiment: soluble fraction after stress (log2 fold change); higher = more stays soluble; pooled small domains, quantitative proteomics
# Condition Notes: stress: pH 4

Would you please look over these solved cases?
{"Sequence Data": "HMNDIDRFIEALIEQDTLPGTNSRINEDVISEMKMMTSVEDIKAYAIATVGLTGGQVNNALINSGL", "Result": -1.61}
{"Sequence Data": "HMNELVEATITTQTGRLDKVLTTIFPQYSRSQIQQLLEQGNILVNETLQKGKYKVKAGDKISLTEPAIKE", "Result": "≥ 0.43"}
{"Sequence Data": "HMGNIKVPSVMGMTLEGAEKVAKDNGAVIEVLEYKESTEEDGTIIEQSPKADMTVATLEKISVVISGK", "Result": 0.0995}
{"Sequence Data": "HMNDTPPELRAALDLLGLKWPLASVELRARYKDLAKQHHPDATGGDKQAEERLKDINRAYSLLKHRLAKQ", "Result": 0.144}

Please look up its soluble fraction (log2): `HMNERTKIPLRKIEIGQAVYVDTLEKVGTVIDIQGKQFKVDLAGLPITVAARNLFYPLPQEAKP`
-0.0254

Please look up its soluble fraction (log2): `HMKSFDERQAALNELAKVIEGTGRKAEQDAEFRREQNQLMIDKIDEQLKGDLTDSQREELKKERAALARK`
0.0649

Please look up its soluble fraction (log2): `HMDNWLSGLAVEADRMILTQPGEVFDRLSRAFEATLIRRALASTGGRRIEAAHLLGIGRNTITRKIQDLGL`
-1.45

Please look up its soluble fraction (log2): `HMLRVGASVTANGKYWYDSYGSKPFGTANNLSTTVTRIVPGNPYPIHIGSYGWLQESQIQIT`
0.204

----------
Reported soluble fraction (log2) values follow for various sequences
# Experiment: soluble fraction after stress (log2 fold change); higher = more stays soluble; pooled small domains, quantitative proteomics
# Condition Notes: stress: pH 4
I'd appreciate a reply containing only the number, no unit.

Would you please look over these solved cases?
{"Sequence Data": "HMDAPIIRLLNSLVQRAVTTTASDIHIEPFEGETKVRMRIDGVIIDYVTLQRALHQPLIARIKIMSNLD", "soluble fraction (log2)": -0.237}
{"Sequence Data": "HMLKRLTVEFSAEMPKKMTSEQKEELASVLSEDPRPAYQNDENREYGLDYGEFSVKFKVKDGVLTVTSVTE", "soluble fraction (log2)": 0.226}
{"Sequence Data": "HMSNGEWQQGSDGRWWYKFSDGTYPKNKVETIGGKKYGFDSEGWMLANTTKEFSGTTYSFGADGVATS", "soluble fraction (log2)": -0.0709}

Here is another sequence to look at.
Please look up its soluble fraction (log2): `HMTKQEYLNQLKNELVKQGVADAEDVVTEYEQHFAFKLADGFGEEEIAKKLGDPAAIASQFVG`
-1.16
